The origin of these recorded values is patent US20260152777A1.

Test system: spontaneous formation of Advanced Glycation End-products (AGEs)
assay-summary: Anti-glycation in tubo assay (BSA + ribose, fluorescence)
Type: biochemical
experimental-context: BSA + ribose, 17 h at 37° C.; listed as ECGC monoglucoside; read-out: IC50 in well (concentration which inhibits AGEs formation by half)
Procedure: The anti-glycation effect was evaluated using an in tubo assay to measure the spontaneous formation of Advanced Glycation End-products (AGEs). This assay was conducted on a 96-wells microplate. […] The fluorescence reading was performed with ? excitation 340 nm and ? emission 420 nm. The anti-glycation activity of the extract was calculated as follows: [formula] FI: Fluorescence of tested extract; blank extract (ribose or BSA); positive control; negative control. […]
measure-name: IC50 (µM)
Your answer should be a plain number; it is taken to be in µM.

Prompt: Complete the entry with IC50 for O=C(O[C@@H]1Cc2c(O)cc(O)cc2O[C@@H]1c1cc(O)c(O[C@H]2O[C@H](CO)[C@@H](O)[C@H](O)[C@H]2O)c(O)c1)c1cc(O)c(O)c(O)c1
Completion: 133
